# pIC50 listing for each entry below
# Tested on: Stagnospora nodorum
# Assay info: Microtiter plate fungicidal screening (agar, spore inoculation)
# Format: cell-based
# Study conditions: Parastagonospora nodorum; fungal growth after 3-5 days at 20° C.; C.V. class in parentheses; read-out: IC50 S. nodorum
pIC50: −log10 of the molar value.

Look at this molecule and give its reported pIC50. O=C(OCc1cccc(C(F)(F)F)c1)C(CSc1nccs1)C(O)c1cccnc1 (centres unmarked)
> 5.30

Also, CC(C(=O)Oc1ccc(Cl)c(Cl)c1)C(O)c1cccnc1 (centres unmarked) please.
4.60 to 4.80

###

# System: Septoria tritici
# Assay info: Microtiter plate fungicidal screening (agar, spore inoculation)
# Format: cell-based
# Study conditions: fungal growth after 3-5 days at 20° C.; C.V. class in parentheses
Experimental readout: IC50 S. tritici

Take a look at these entries with their results.
INSERT INTO assay_data (compound, experimental_target, value_reported) VALUES
  ('O=C(OCc1cccc(C(F)(F)F)c1)C(c1ccccc1Cl)C(O)c1cccnc1 (centres unmarked)', 'Septoria tritici', 'A (c)'),
  ('O=C(OCc1ccc(Cl)c(Cl)c1)C(CSc1nc2cccnc2s1)C(O)c1cccnc1 (centres unmarked)', 'Septoria tritici', 'A (c)'),
  ('CC(C(=O)Oc1ccc(Cl)c(Cl)c1)C(O)c1cccnc1 (centres unmarked)', 'Septoria tritici', 'A (b)'),
  ('O=C(OCc1cccc(C(F)(F)F)c1)[C@H](c1ccccc1)[C@@H](O)c1cccnc1', 'Septoria tritici', 'A (d)');

With those in mind, consider the next compound.
Look at this compound and give its reported IC50 S. tritici. O=C(OCc1cccc(C(F)(F)F)c1)C(CSc1nccs1)C(O)c1cccnc1 (centres unmarked)
A (d)
